# System: A/H1N1 virus A/Virginia/ATCC3/2009 (Virg09)
# EXPERIMENT: microbe, parasite or virus in culture
# Type: cell-based, influenza A virus
# CONDITION_LABEL: Influenza A virus, MDCK, read-out: Antiviral EC50 against A/H1N1 virus, Virg09 strain, Microscopy
Record form. Attribute: EC50. Fill in for each entry.
Numbers only, in nM.

- Cc1cc(CNC(=O)c2cc(F)c(F)c(C(F)(F)F)c2)c(C)s1 [Compound 35]: 890
- NC(=O)c1ncn([C@@H]2O[C@H](CO)[C@@H](O)[C@H]2O)n1 [Ribavirin, reference compound]: 25000
- O=C(NCc1ccsc1)c1cc(Cl)cc(C(F)(F)F)c1 [Compound 50]: 2100
- Cc1cc(CNC(=O)c2cc(F)cc(C(F)(F)F)c2)c(C)o1 [Compound 54]: 3600

Moving on to the next molecule.
**Query** EC50 for Cc1cc(CNC(=O)c2cc(Cl)cc(C(F)(F)F)c2)c(C)s1 [Compound 23] ?
**Result** 710

====

# Test system: MDCK cells
# CONDITION_LABEL: dog
PARAMETER: Cytotoxicity MCC, Microscopy

- Cc1cc(CNC(=O)c2cc(F)cc(C(F)(F)F)c2)c(C)s1 [Compound 22]: >100 µM
- Cc1cc(CNC(=O)c2cc(Cl)c(F)c(C(F)(F)F)c2)cs1 [Compound 52]: >100 µM
- Cc1cc(CNC(=O)c2cc(Cl)cc(C(F)(F)F)c2)c(C)s1 [Compound 23]: >100 µM
- Cc1cc(CNC(=O)c2cc(Cl)cc(C(F)(F)F)c2)cs1 [Compound 48]: >100 µM

Would you be so kind as to report Cytotoxicity MCC, Microscopy for each listed record?
1. Cc1cc(CNC(=O)c2cc(Cl)cc(C(F)(F)F)c2Cl)cs1 [Compound 53]
2. CC(C)c1ccccc1NCCN1CCCCC1 [RL-007, reference compound]

**Result**
[">100 µM", ">40 µM"]

====

Record form. Attribute: Cytotoxicity MCC, Microscopy. Fill in for each entry.
# Tested on: MDCK cells
# CONDITION_LABEL: dog

* O=C(NCc1ccsc1)c1cc(F)cc(C(F)(F)F)c1 | >100 µM
* O=C1c2c(O)c(=O)ccn2N([C@@H]2c3ccccc3SCc3c2ccc(F)c3F)[C@@H]2COCCN12 | >0.1 µM

Moving on to the next compound.
**Query** Cytotoxicity MCC, Microscopy for Cc1cc(CNC(=O)c2cc(F)c(F)c(C(F)(F)F)c2)c(C)s1 ?
**Result** >100 µM
